Recorded values, source patent US20070224648A1.

target: KATP channels from C57BL/6J β-cells (Mus musculus, UniProt Q61743); construct: inside-out patches excised from a C57BL/6J or CH3/HeH β-cell; endogenous in cells; assay: ATP sensitivity of KATP channels in inside-out patches; settings: read-out: half-maximal inhibition of C57BL/6J KATP channels by ATP (IC50)
Sequence (Q61743 whole entry): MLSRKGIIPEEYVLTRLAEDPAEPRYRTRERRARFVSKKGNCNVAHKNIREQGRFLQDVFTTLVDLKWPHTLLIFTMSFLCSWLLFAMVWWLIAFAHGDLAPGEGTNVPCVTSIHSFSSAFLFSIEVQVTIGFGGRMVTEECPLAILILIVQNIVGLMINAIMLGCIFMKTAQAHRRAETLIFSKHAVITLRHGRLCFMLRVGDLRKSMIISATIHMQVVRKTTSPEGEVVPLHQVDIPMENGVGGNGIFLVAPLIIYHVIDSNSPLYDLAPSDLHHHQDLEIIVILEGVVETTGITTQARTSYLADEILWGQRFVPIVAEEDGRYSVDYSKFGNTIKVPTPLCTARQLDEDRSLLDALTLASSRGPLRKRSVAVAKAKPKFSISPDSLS
Sequence (B2RUS7 1-1588 partner): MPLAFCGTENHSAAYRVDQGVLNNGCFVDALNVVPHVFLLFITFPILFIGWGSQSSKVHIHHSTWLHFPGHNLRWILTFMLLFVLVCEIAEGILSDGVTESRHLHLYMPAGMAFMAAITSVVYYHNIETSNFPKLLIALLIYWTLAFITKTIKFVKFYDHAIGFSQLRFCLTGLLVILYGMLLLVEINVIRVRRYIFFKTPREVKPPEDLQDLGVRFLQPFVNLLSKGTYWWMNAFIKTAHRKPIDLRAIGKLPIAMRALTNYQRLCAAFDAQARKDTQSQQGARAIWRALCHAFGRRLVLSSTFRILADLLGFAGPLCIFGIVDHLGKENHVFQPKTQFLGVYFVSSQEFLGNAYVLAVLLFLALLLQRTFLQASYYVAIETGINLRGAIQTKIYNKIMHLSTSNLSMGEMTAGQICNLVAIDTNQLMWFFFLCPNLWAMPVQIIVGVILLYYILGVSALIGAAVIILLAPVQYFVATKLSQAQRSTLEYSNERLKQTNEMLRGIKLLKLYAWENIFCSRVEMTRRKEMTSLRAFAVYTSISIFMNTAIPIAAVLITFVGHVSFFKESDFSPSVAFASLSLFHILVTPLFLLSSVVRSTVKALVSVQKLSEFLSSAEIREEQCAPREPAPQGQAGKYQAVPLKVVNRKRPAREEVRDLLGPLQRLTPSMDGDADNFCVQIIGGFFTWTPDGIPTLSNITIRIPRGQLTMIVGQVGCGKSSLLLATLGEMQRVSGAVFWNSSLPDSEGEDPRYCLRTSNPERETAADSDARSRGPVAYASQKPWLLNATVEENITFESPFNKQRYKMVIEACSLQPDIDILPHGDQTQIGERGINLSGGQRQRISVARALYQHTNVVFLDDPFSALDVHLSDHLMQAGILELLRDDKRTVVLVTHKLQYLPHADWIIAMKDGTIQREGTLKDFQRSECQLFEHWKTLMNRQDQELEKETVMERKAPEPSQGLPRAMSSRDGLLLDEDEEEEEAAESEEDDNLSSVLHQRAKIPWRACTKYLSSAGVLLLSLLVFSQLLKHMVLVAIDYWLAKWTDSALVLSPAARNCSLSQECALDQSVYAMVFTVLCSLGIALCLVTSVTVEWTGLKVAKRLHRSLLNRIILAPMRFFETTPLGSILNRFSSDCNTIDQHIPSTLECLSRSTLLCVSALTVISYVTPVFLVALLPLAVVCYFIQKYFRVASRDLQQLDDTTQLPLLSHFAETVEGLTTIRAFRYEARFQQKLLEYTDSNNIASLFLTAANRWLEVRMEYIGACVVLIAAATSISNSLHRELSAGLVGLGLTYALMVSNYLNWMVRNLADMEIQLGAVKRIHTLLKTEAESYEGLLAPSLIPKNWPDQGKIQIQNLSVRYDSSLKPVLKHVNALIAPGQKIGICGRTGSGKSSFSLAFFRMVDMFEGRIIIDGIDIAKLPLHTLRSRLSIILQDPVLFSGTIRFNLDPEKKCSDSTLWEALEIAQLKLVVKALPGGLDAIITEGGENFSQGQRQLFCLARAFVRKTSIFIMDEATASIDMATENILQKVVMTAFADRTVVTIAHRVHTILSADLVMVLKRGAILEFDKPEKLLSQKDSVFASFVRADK
Measured Property: pIC50
The value called pIC50 is obtained by taking minus log10 of the concentration in mol/L.

Query for KATP channels from C57BL/6J β-cells (Mus musculus, UniProt Q61743): what pIC50 does the record show for "Nc1ncnc2c1ncn2[C@@H]1O[C@H](COP(=O)(O)OP(=O)(O)OP(=O)(O)O)[C@@H](O)[C@H]1O" ? 5.00
